As shown below, each of these molecules has a reported pIC50 value.
Target: SARS-CoV-2 RdRp holoenzyme (Severe acute respiratory syndrome coronavirus 2)
Construct: (Sf nsp12-3F/7L8 preincubated with Sf 7H8 at a 1:3 ratio); 3F (3xFlag) (C); made in house; host or cells: 'Sf', read as Spodoptera frugiperda insect cells (my inference from the prefix); details are in Bertolin et al
Assay: FRET-based RdRp strand displacement assay
Assay type: biochemical
Conditions: RNA (RdRp substrate), 0.3 mM each NTP, 0.02% Tween-20 in RdRp assay buffer; read-out: IC50 RdRp
In plain terms, pIC50 is the concentration in mol/L turned into minus its base-10 logarithm.

Q: Could you tell me which pIC50 is on file for Cc1ccc(C(=O)Nc2ccc(S(=O)(=O)O)c3cc(S(=O)(=O)O)cc(S(=O)(=O)O)c23)cc1NC(=O)c1cccc(NC(=O)Nc2cccc(C(=O)Nc3cc(C(=O)Nc4ccc(S(=O)(=O)O)c5cc(S(=O)(=O)O)cc(S(=O)(=O)O)c45)ccc3C)c2)c1 [Suramin] ?
A: 6.30

Q: Could you tell me which pIC50 is on file for CC(C)(Sc1ccc(CCN(CCCCC2CCCCC2)C(=O)NC2CCCCC2)cc1)C(=O)O [GW7647] ?
A: 4.49

* * *

Biological target: SARS-CoV-2 nsp13 helicase (Severe acute respiratory syndrome coronavirus 2, UniProt P0DTD1)
Experiment: biochemical
Assay type: biochemical
Readout Type: IC50 No detergent

// solved cases for IC50 No detergent follow
Compound	Endpoint Result
O=C1c2c(O)ccc(O)c2C(=O)c2c(NCCNCCO)ccc(NCCNCCO)c21	Quenching
CS(=O)(=O)c1cccc(C[C@H](NC(=O)c2c(Cl)cc3c(c2Cl)CCN(C(=O)c2ccc4ccoc4c2)C3)C(=O)O)c1	No inhibition
CCCc1c2oc(C(=O)O)cc(=O)c2cc2c(=O)cc(C(=O)O)n(CC)c12	No inhibition
NC(Cc1cc(O)c(O)cc1O)C(=O)O (racemic) [6-Hydroxy-DL-DOPA]	Quenching

Turning now to a further compound:
Q: Could you tell me which IC50 No detergent is on file for CN1Cc2sccc2C(c2ccc(O)c(O)c2)C1 (stereo not drawn) ?
A: No inhibition

* * *

Target: SARS-CoV-2 nsp13 helicase (Severe acute respiratory syndrome coronavirus 2)
Experiment: biochemical
Assay type: biochemical
Conditions: read-out: IC50 nsp13
Readout Type: IC50 (µM)
The response must be a number in µM with no trailing unit.

Smiles Data	Readout Unit	IC50
CC(C)c1ccccc1Cc1cc(C(=O)Nc2ccc(S(=O)(=O)c3ccccc3C(C)(C)C)cc2)c(O)c(O)c1O	µM	39

Q: Could you tell me which IC50 is on file for O=C1CC(=O)c2c(Cl)c(Cl)c(Cl)c(Cl)c21 ?
A: 21

* * *

Target: SARS-CoV-2 nsp13 helicase (Severe acute respiratory syndrome coronavirus 2)
Assay: biochemical
Format: biochemical
Settings: IC50 No detergent
As shown below, each of these molecules has a reported pIC50 value.
In plain terms, pIC50 is the concentration in mol/L turned into minus its base-10 logarithm.

Molecule	pIC50
CC1(C)CCC(c2ccc(Cl)cc2)=C(CN2CCN(c3ccc(C(=O)NS(=O)(=O)c4ccc(N[C@H](CCN5CCOCC5)CSc5ccccc5)c(S(=O)(=O)C(F)(F)F)c4)cc3)CC2)C1 [Navitoclax]	5.92
CC(C)(Sc1ccc(CCN(CCCCC2CCCCC2)C(=O)NC2CCCCC2)cc1)C(=O)O [GW7647]	5.23

Turning now to a further molecule:
Q: Could you tell me which pIC50 is on file for CC(C)(C[C@H]1CN(S(=O)(=O)c2cccc(C(F)(F)F)c2)c2cc(-c3cc(F)cc(OC(F)F)c3)ccc2O1)C(=O)O [Cintirorgon] ?
A: 5.64

* * *

As shown below, each of these compounds has a reported IC50 value.
Target: SARS-CoV-2 nsp13 helicase (Severe acute respiratory syndrome coronavirus 2, UniProt P0DTD1)
Test: biochemical
Assay type: biochemical
Settings: read-out: IC50 No detergent
The response must be a number in µM with no trailing unit.

Smiles Data	IC50 [µM]
NC(=S)N/N=C/c1coc2ccccc2c1=O.[Cl][Cu][Cl]	8.5
O=C1CC(=O)c2c(Cl)c(Cl)c(Cl)c(Cl)c21	8.1

Turning now to a further compound:
Q: Could you tell me which IC50 is on file for CN(C)CC[C@H](CSc1ccccc1)Nc1ccc(S(=O)(=O)NC(=O)c2ccc(N3CCC(C)(C)CC3)cc2)cc1[N+](=O)[O-] ?
A: 3.3

* * *

Biological target: SARS-CoV-2 RdRp holoenzyme (Severe acute respiratory syndrome coronavirus 2)
Construct: (Sf nsp12-3F/7L8 preincubated with Sf 7H8 at a 1:3 ratio); 3F (3xFlag) (C); made in house; host or cells: 'Sf', read as Spodoptera frugiperda insect cells (my inference from the prefix); details are in Bertolin et al
Experiment: FRET-based RdRp strand displacement assay
Format: biochemical
As shown below, each of these compounds has a reported pIC50 value.
In plain terms, pIC50 is the concentration in mol/L turned into minus its base-10 logarithm.

// solved cases for pIC50 follow
Compound	Endpoint Result
Cc1cc2c(C(C)C)c(O)c(O)c(C=O)c2c(O)c1-c1c(C)cc2c(C(C)C)c(O)c(O)c(C=O)c2c1O [Gossypol]	4.77
COc1ccc(-c2ccc3cc(C(=O)O)ccc3c2)cc1C12CC3CC(CC(C3)C1)C2 [Adapalene]	4.70
CC(C)c1cc(C(C)C)c(CC(=O)NS(=O)(=O)Oc2c(C(C)C)cccc2C(C)C)c(C(C)C)c1 [Avasimibe]	4.74

Q: Could you tell me which pIC50 is on file for Cc1cc(O[C@@H](CCC(F)(F)F)c2ccc(C(=O)NCCC(=O)O)cc2)cc(C)c1-c1ccc(C(C)(C)C)cc1 [Adomeglivant] ?
A: 4.41

Q: Could you tell me which pIC50 is on file for COc1cc(C(=O)NS(=O)(=O)c2ccccc2C)ccc1Cc1cn(C)c2ccc(NC(=O)OC3CCCC3)cc12 [Zafirlukast] ?
A: 4.34

* * *

Biological target: SARS-CoV-2 nsp13 helicase (Severe acute respiratory syndrome coronavirus 2, UniProt P0DTD1)
Test: biochemical
Type: biochemical
Conditions: IC50 No detergent
As shown below, each of these molecules has a reported pIC50 value.
In plain terms, pIC50 is the concentration in mol/L turned into minus its base-10 logarithm.

Q: Could you tell me which pIC50 is on file for CC(C)c1cc(C(C)C)c(CC(=O)NS(=O)(=O)Oc2c(C(C)C)cccc2C(C)C)c(C(C)C)c1 ?
A: 5.40

Q: Could you tell me which pIC50 is on file for CCCCC/C=C\C/C=C\CCCCCCCC(=O)O ?
A: 4.96

* * *

As shown below, each of these compounds has a reported IC50 value.
Biological target: SARS-CoV-2 nsp13 helicase (Severe acute respiratory syndrome coronavirus 2, UniProt P0DTD1)
Assay: biochemical
Type: biochemical
Conditions: RNA (nsp13 substrate), 0.3 mM ATP, 0.02% Tween-20 in RdRp assay buffer; read-out: IC50 nsp13

Smiles Data	Readout Type	Endpoint Result
O=C1/C(=C/c2ccc(O)c(Br)c2)CN(Cc2ccccc2)C/C1=C\c1ccc(O)c(Br)c1	IC50	> 100 µM

Q: Could you tell me which IC50 is on file for CC1(C)CCC(c2ccc(Cl)cc2)=C(CN2CCN(c3ccc(C(=O)NS(=O)(=O)c4ccc(N[C@H](CCN5CCOCC5)CSc5ccccc5)c(S(=O)(=O)C(F)(F)F)c4)cc3)CC2)C1 ?
A: > 100 µM

Q: Could you tell me which IC50 is on file for Cc1cc(O[C@@H](CCC(F)(F)F)c2ccc(C(=O)NCCC(=O)O)cc2)cc(C)c1-c1ccc(C(C)(C)C)cc1 ?
A: > 100 µM

* * *

As shown below, each of these molecules has a reported IC50 value.
Target: UniProt P0DTD1
Experiment: biochemical
Type: biochemical
Details: read-out: IC50 + 0.02% Tween-20

// solved cases for IC50 follow
Smiles Data	IC50
COc1cccc(NC(=O)/C=C/c2ccc(Cl)cc2)c1	> 250 µM
CN(C)CC[C@H](CSc1ccccc1)Nc1ccc(S(=O)(=O)NC(=O)c2ccc(N3CCC(C)(C)CC3)cc2)cc1[N+](=O)[O-]	> 250 µM

Turning now to a further molecule:
Q: Could you tell me which IC50 is on file for COc1cc(C(N)=O)ccc1NC(=O)[C@@H]1N[C@@H](CC(C)(C)C)[C@@]2(C(=O)Nc3cc(Cl)ccc32)[C@H]1c1cccc(Cl)c1F ?
A: > 250 µM

* * *

Molecular target: SARS-CoV-2 RdRp holoenzyme (Severe acute respiratory syndrome coronavirus 2, UniProt P0DTD1)
Construct: (Sf nsp12-3F/7L8 preincubated with Sf 7H8 at a 1:3 ratio); 3F (3xFlag) (C); made in house; host or cells: 'Sf', read as Spodoptera frugiperda insect cells (my inference from the prefix); details are in Bertolin et al
Assay: FRET-based RdRp strand displacement assay
Assay type: biochemical
Settings: RNA (RdRp substrate), 0.3 mM each NTP, 0.02% Tween-20 in RdRp assay buffer; read-out: IC50 RdRp
pIC50: −log10 of the molar value.
Classify as follows. Reported pIC50 greater than or equal to 5: condition met. Reported pIC50 below: condition not met.

Smiles Data	Group
CC1(C)CCC(c2ccc(Cl)cc2)=C(CN2CCN(c3ccc(C(=O)NS(=O)(=O)c4ccc(N[C@H](CCN5CCOCC5)CSc5ccccc5)c(S(=O)(=O)C(F)(F)F)c4)cc3)CC2)C1	condition not met
O=C1CC(=O)c2c(Cl)c(Cl)c(Cl)c(Cl)c21	condition not met
Cc1cc(-c2ccc(N=Nc3c(S(=O)(=O)[O-])cc4cc(S(=O)(=O)[O-])cc(N)c4c3O)c(C)c2)ccc1N=Nc1c(S(=O)(=O)[O-])cc2cc(S(=O)(=O)[O-])cc(N)c2c1O.[Na+].[Na+].[Na+].[Na+]	condition met
Cc1nc(N=Nc2cc(S(=O)(=O)[O-])c3cc([N+](=O)[O-])cc(S(=O)(=O)[O-])c3c2)c(COP(=O)([O-])[O-])c(C=O)c1O.[Na+].[Na+].[Na+].[Na+]	condition met

API: the following record is the query input.
Q: Could you tell me if the measured pIC50 of CC(C)(C[C@H]1CN(S(=O)(=O)c2cccc(C(F)(F)F)c2)c2cc(-c3cc(F)cc(OC(F)F)c3)ccc2O1)C(=O)O reaches 5 or more?
A: condition not met
